Numbers sourced from paper PMC4859520.

- tested_system: GmolGOBP2 V114A (Grapholita molesta, UniProt H9XTU6, V134A)
- Sequence (H9XTU6 entry or part of it V134A): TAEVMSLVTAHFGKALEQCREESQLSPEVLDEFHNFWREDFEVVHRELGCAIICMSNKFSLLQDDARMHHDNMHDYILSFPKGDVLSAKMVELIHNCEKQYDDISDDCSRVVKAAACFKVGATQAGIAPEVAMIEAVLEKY
- experiment_summary: Fluorescence competitive binding assay, GmolGOBP2 mutant V114A
pKi values, listed per item
To interpret pKi, take it as minus log10 of a concentration measured in moles per litre.

Example cases with answers are listed next.
{"structure_smiles_string": "CCCCCCCCCCO", "tested_system": "GmolGOBP2 V114A (Grapholita molesta, UniProt H9XTU6, V134A)", "measured": 4.81}
{"structure_smiles_string": "CCCCCCCCCCCCO", "tested_system": "GmolGOBP2 V114A (Grapholita molesta, UniProt H9XTU6, V134A)", "measured": 5.75}

Shift focus to the following entry.
# compound CCCCCCCCCCCCCCCCO ; its pKi = 5.70
